# Test system: Mycobacterium smegmatis ATCC 19420
# Test: Broth microdilution MIC, M. smegmatis
# Assay type: cell-based
# Condition description: Mycolicibacterium smegmatis, ATCC19420, M. smegmatis ATCC 19420; read-out: MIC Mycobacterium smegmatis ATCC 19420
Kindly supply the reported MIC values for the records listed here.
Numbers only, in µg/mL.

The cases that follow already have their MIC on record.
O=C(NC(Cc1ccccc1)C(=O)Nc1cccc2cnccc12)c1cccc2[nH]ccc12 (stereo not shown); 0.195
Cn1nnc2cccc(NC(=O)C(Cc3ccccc3)NC(=O)c3ccccc3F)c21 (stereo not shown); 1.56
O=C(NC(Cc1ccccc1)C(=O)Nc1ccccc1OCF)c1ccccc1 (stereo not shown); 0.195
Cc1ccccc1NC(=O)C(Cc1ccccc1)NC(=O)c1cccc(OC(F)F)c1 (stereo not shown); 50
Cc1c(NC(=O)C(Cc2ccccc2)NC(=O)c2ccccc2)cccc1C(F)(F)F (stereo not shown); 3.12

Could you tell me MIC for each of these molecules? They are listed below.
1. COc1ccccc1NC(=O)C(Cc1ccc(O)cc1)NC(=O)c1cccs1 (stereo not shown)
2. O=C(NC(Cc1ccccc1)C(=O)Nc1ccccc1OC(F)F)c1ccccc1F (stereo not shown)
3. O=C(NC(Cc1ccccc1)C(=O)Nc1cccc2cccnc12)c1ccccc1 (stereo not shown)
4. O=C(N[C@H](Cc1ccccc1)C(=O)Nc1cc(Cl)ccc1N1CCNCC1)c1ccccc1F [IX-274a]
5. Cc1c(NC(=O)C(Cc2ccccc2)NC(=O)c2ccccc2)cccc1-n1ccnn1 (stereo not shown)
6. O=C(NC(Cc1ccccc1)C(=O)Nc1cc(F)ccc1N1CCNCC1)c1cccs1 (stereo not shown)

output:
[0.195, 0.39, 3.12, 0.073, 3.12, 0.097]

====

# System: Mycobacterium smegmatis ATCC 19420
# Test: Broth microdilution MIC, M. smegmatis
# Format: cell-based
# Condition description: Mycolicibacterium smegmatis, ATCC19420, M. smegmatis ATCC 19420; read-out: MIC Mycobacterium smegmatis ATCC 19420
Kindly supply the reported MIC values for the records listed here.
Answers are plain numbers, in µg/mL.

The cases that follow already have their MIC on record.
Cc1c(NC(=O)C(Cc2ccccc2)NC(=O)c2ccccc2)cccc1-n1cnnn1 (stereo not drawn); 0.78
COc1ccc(Cl)cc1NC(=O)C(Cc1ccccc1)NC(=O)c1ccccc1F (stereo not drawn); 0.39

Could you tell me MIC for each of these compounds? They are listed below.
1. O=C(NC(Cc1ccccc1)C(=O)Nc1cc(F)ccc1N1CCOCC1)c1ccccc1F (stereo not drawn)
2. O=C(NC(Cc1ccccc1)C(=O)Nc1cccc2[nH]ccc12)c1ccccc1F (stereo not drawn)
3. O=C(NC(Cc1ccccc1)C(=O)Nc1cc(F)ccc1N1CCNCC1)c1ccccc1 (stereo not drawn)
4. Cc1ccc(Br)cc1NC(=O)C(Cc1ccc(O)cc1)NC(=O)c1ccccc1 (stereo not drawn)
5. Cn1ccc2cccc(NC(=O)C(Cc3ccccc3)NC(=O)c3ccccc3)c21 (stereo not drawn)
6. Cc1ccccc1NC(=O)C(Cc1ccc(O)c(O)c1)NC(=O)c1ccccc1 (stereo not drawn)
7. O=C(NC(Cc1ccccc1)C(=O)Nc1ccccc1N1CCSCC1)c1ccccc1 (stereo not drawn)

output:
0.097
1.56
0.39
0.78
1.56
1.56
0.095

====

Kindly supply the reported MIC values for the records listed here.
# System: Mycobacterium tuberculosis H37Rv
# Test: Microplate Alamar Blue assay (MABA) MIC, M. tuberculosis
# Assay type: cell-based
# Condition description: read-out: MIC Mycobacterium tuberculosis H37Rv

The cases that follow already have their MIC on record.
O=C(NC(Cc1ccccc1)C(=O)Nc1cc(F)ccc1N1CC2CCCNC2C1)c1ccccc1F (stereo not shown); 12.5 µg/mL
Cc1ccc(F)cc1NC(=O)C(Cc1ccc(O)cc1)NC(=O)c1cccs1 (stereo not shown); 1.56 µg/mL
O=C(N[C@@H](Cc1ccccc1)C(=O)Nc1cc(F)ccc1N1CCNCC1)c1ccccc1F (racemic) [IX-214b]; 12.5 µg/mL

Now for a further compound.
input: Which measured MIC value corresponds to O=C(NC(Cc1ccccc1)C(=O)Nc1ccccc1N1CCOCC1)c1ccccc1F (stereo not shown) ?
output: 1.56 µg/mL

====

# Test system: Mycobacterium tuberculosis H37Rv
# Test: Microplate Alamar Blue assay (MABA) MIC, M. tuberculosis
# Assay type: cell-based
# Condition description: read-out: MIC Mycobacterium tuberculosis H37Rv
Measure name: MIC (µg/mL)
One number for each entry, in µg/mL.

The cases that follow already have their MIC on record.
O=C(NC(Cc1ccccc1)C(=O)Nc1cc(F)ccc1N1CCNCC1)c1ccccc1F (racemic) [IX-214]; 1.56
COc1ccccc1NC(=O)C(Cc1ccccc1)NC(=O)c1ccccc1Cl (stereo not drawn) [IX-62]; 6.25
O=C(NC(Cc1ccc(O)cc1)C(=O)Nc1cccc2c1CCC2)c1ccccc1 (stereo not drawn) [IX-14]; 6.25
Cc1ccc(Cl)cc1NC(=O)C(Cc1ccccc1)NC(=O)c1cccc2[nH]ccc12 (stereo not drawn) [IX-53]; 3.12
COc1ccccc1NC(=O)C(Cc1ccccc1)NC(=O)c1ccccc1C (stereo not drawn) [IX-68]; 3.12
COc1ccc(F)cc1NC(=O)C(Cc1ccc(O)cc1)NC(=O)c1cccs1 (stereo not drawn) [IX-206]; 0.78

Now for a further molecule.
input: Which measured MIC value corresponds to O=C(NC(Cc1ccccc1)C(=O)Nc1cccc2c1OCCO2)c1cccc2[nH]ccc12 (stereo not drawn) [IX-45] ?
output: 3.12

====

Kindly supply the reported MIC values for the records listed here.
# Tested on: Mycobacterium smegmatis ATCC 19420
# Test: Broth microdilution MIC, M. smegmatis
# Format: cell-based
# Condition description: Mycolicibacterium smegmatis, ATCC19420, M. smegmatis ATCC 19420; read-out: MIC Mycobacterium smegmatis ATCC 19420
One number for each entry, in µg/mL.

O=C(NC(Cc1ccccc1)C(=O)Nc1cccc2ccoc12)c1ccccc1 (centres unmarked) [II-65]; 0.39
O=C(N[C@H](Cc1ccccc1)C(=O)Nc1cc(F)ccc1N1CCNCC1)c1ccccc1F [IX-214a]; 0.073

Could you tell me MIC for each of these compounds? They are listed below.
1. Cc1ccccc1C(=O)NC(Cc1ccccc1)C(=O)Nc1cc(F)ccc1N1CCNCC1 (centres unmarked) [IX-215]
2. COc1ncccc1NC(=O)C(Cc1ccccc1)NC(=O)c1ccccc1 (centres unmarked) [IX-38]
3. O=C(NC(Cc1ccccc1)C(=O)Nc1ccccc1-n1ccnn1)c1ccccc1 (centres unmarked) [I-214]

output:
[0.19, 0.39, 3.12]

====

# Test: physchem
Measure name: solubility

input: Which measured solubility value corresponds to O=C(NC(Cc1ccccc1)C(=O)Nc1cccc2[nH]ncc12)c1ccccc1 (stereo not shown) [IX-37] ?
output: > 10 µM

====

# System: Vero E6 ATCC CRL1586 cells
# Test: Mammalian-cell cytotoxicity, minimal cytotoxic concentration (CellTiter96)
# Format: cell-based
Kindly supply the reported MCC mammalian cells Vero E6 ATCC CRL1586 values for the records listed here.

CC(=O)Oc1ccc(CC(NC(=O)c2ccccc2F)C(=O)Nc2ccccc2N2CCOCC2)cc1 (centres unmarked); 91 µg/mL
Cc1ccc(Cl)cc1NC(=O)C(Cc1ccccc1)NC(=O)c1cccc2[nH]ccc12 (centres unmarked); 34 µg/mL
Cc1ccccc1C(=O)NC(Cc1ccccc1)C(=O)Nc1cc(F)ccc1N1CCOCC1 (centres unmarked); 10 µg/mL
CC(C)Oc1ccccc1NC(=O)C(Cc1ccccc1)NC(=O)c1ccccc1 (centres unmarked); >100 µg/mL
O=C(NC(Cc1ccccc1)C(=O)Nc1cc(F)ccc1N1CCNCC1)c1cccc2[nH]ccc12 (centres unmarked); 11 µg/mL

Could you tell me MCC mammalian cells Vero E6 ATCC CRL1586 for each of these molecules? They are listed below.
1. CC1CN(c2ccccc2NC(=O)C(Cc2ccc(O)cc2)NC(=O)c2ccccc2)CC(C)O1 (centres unmarked)
2. O=C(NC(Cc1ccccc1)C(=O)Nc1cccc2[nH]ncc12)c1cccs1 (centres unmarked)
3. O=C(NC(Cc1ccccc1)C(=O)Nc1cccc2cnccc12)c1cccc2[nH]ccc12 (centres unmarked)
4. Cc1ccc(F)cc1NC(=O)C(Cc1ccccc1)NC(=O)c1ccccc1C (centres unmarked)
5. O=C(NC(Cc1ccc(O)cc1)C(=O)Nc1cccc2cc[nH]c12)c1ccccc1 (centres unmarked)
6. O=C(NC(Cc1ccccc1)C(=O)Nc1ccccc1N1CCNCC1)c1ccccc1 (centres unmarked)

output:
["71 µg/mL", "47 µg/mL", "70 µg/mL", "1.4 µg/mL", "78 µg/mL", "38 µg/mL"]

Could you tell me MCC mammalian cells Vero E6 ATCC CRL1586 for each of these molecules? They are listed below.
1. Cc1ccccc1NC(=O)C(Cc1ccc(OC(=O)c2ccccc2)cc1)NC(=O)c1ccccc1 (centres unmarked)
2. O=C(NC(Cc1ccccc1)C(=O)Nc1cccc2ncccc12)c1ccccc1F (centres unmarked)
3. O=C(NC(Cc1ccccc1)C(=O)Nc1cccc2sccc12)c1ccccc1 (centres unmarked)
4. O=C(NC(Cc1ccccc1)C(=O)Nc1cc(F)ccc1N1CCOCC1)c1ccccc1 (centres unmarked)
5. O=C(NC(Cc1ccccc1)C(=O)Nc1ccccc1OCF)c1ccccc1 (centres unmarked)
6. Cc1ccccc1NC(=O)C(Cc1ccccc1)NC(=O)c1ccccc1Br (centres unmarked)

output:
>48 µg/mL
78 µg/mL
>100 µg/mL
48 µg/mL
>100 µg/mL
29 µg/mL

Could you tell me MCC mammalian cells Vero E6 ATCC CRL1586 for each of these molecules? They are listed below.
1. Cc1ccccc1C(=O)NC(Cc1ccccc1)C(=O)Nc1cccc2c1cnn2C (centres unmarked)
2. Cc1ccc(Cl)cc1NC(=O)C(Cc1ccccc1)NC(=O)c1ccccc1 (centres unmarked)
3. O=C(NC(Cc1ccccc1)C(=O)Nc1ccccc1OC(F)F)c1ccccc1 (centres unmarked)

output:
1. >100 µg/mL
2. 13 µg/mL
3. >100 µg/mL
